Data provenance: paper PMC9482650

- assay-target: DLG2_3, Q15700
- assay-summary: holdup assay
- Parameters: key: below the threshold = too weak to quantify, mostly under pKd 3.1 to 4
- experimental-conditions: plain residues with an end cap or a label only (N-terminal biotin on a linker: ado-ado)
quantity-measured: pKd
Simply state the number, no unit and no words.

Short answer for ATKDKKITTV [EXOC4, Q96A65] : pKd was 4.58

Short answer for HLSTRQGTCV [ATRNL1, Q5VV63] : pKd was 4.19

Short answer for TFSRRPKTRV [CD226, Q15762] : pKd was 3.88

Short answer for TKEIPNCTSV [SORCS3, Q9UPU3] : pKd was 4.24

Short answer for GSQSQVETEA [FKBP4, Q02790] : pKd was 3.82

Short answer for YAEKRMLTEV [KCNA6, P17658] : pKd was 3.98

Short answer for GTMFLRETSL [GUCY1A2, P33402] : pKd was 4.79

Short answer for EFKQTSSFLV [JAM1, Q9Y624] : pKd was 3.63
